The reported measurements were obtained from patent US20120023600A1.

The following binders are listed with their measured pKd values.
Molecular target: T1, recombinant human DKK1 (human, UniProt O94907 32-266)
T1 construct: also called Dickkopf-1; rhDKK1
T1 sequence: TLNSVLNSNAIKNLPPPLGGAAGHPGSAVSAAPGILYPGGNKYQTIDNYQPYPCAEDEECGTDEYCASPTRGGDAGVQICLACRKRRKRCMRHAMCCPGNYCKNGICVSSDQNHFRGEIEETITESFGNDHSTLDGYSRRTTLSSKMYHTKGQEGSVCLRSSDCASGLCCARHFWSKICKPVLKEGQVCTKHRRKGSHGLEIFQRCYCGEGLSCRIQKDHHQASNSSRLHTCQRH
Experiment: SPR (Biacore), DKK1 immobilised on CM5 chip, Fab as analyte
pKd: −log10 of the molar value.
readout label: pKd

INSERT INTO measurements (binder, recorded_measurement) VALUES
  ('MOR04461 (Fab, V domains shown, Fab with C-terminal FLAG and 6xHis tags) VH: QVQLVESGGGLVQPGGSLRLSCAASGFTFSSYWMSWVRQAPGKGLEWVSGISYSGSNTHYADSVKGRFTISRDNSKNTLYLQMNSLRAEDTAVYYCARMGIDLDYWGQGTLVTVSS VL: DIALTQPASVSGSPGQSITISCTGTSSDVGGFNYVSWYQQHPGKAPKLMIHDGSNRPSGVSNRFSGSKSGNTASLTISGLQAEDEADYYCSTWDMTVDFVFGGGTKLTVLG', 8.12),
  ('MOR04456 (Fab, V domains shown, Fab with C-terminal FLAG and 6xHis tags) VH: QVQLVESGGGLVQPGGSLRLSCAASGFTFNNYGMTWVRQAPGKGLEWVSGISGSGSYTYYADSVKGRFTISRDNSKNTLYLQMNSLRAEDTAVYYCARTIYMDYWGQGTLVTVSS VL: DIVLTQSPATLSLSPGERATLSCRASQNLFSPYLAWYQQKPGQAPRLLIYGASNRATGVPARFSGSGSGTDFTLTISSLEPEDFATYYCQQYGDEPITFGQGTKVEIKR', 8.10),
  ('MOR04454 (Fab, V domains shown, Fab with C-terminal FLAG and 6xHis tags) VH: QVQLVESGGGLVQPGGSLRLSCAASGFTFSNYGLHWVRQAPGKGLEWVSSISYYGSSTYYADSVKGRFTISRDNSKNTLYLQMNSLRAEDTAVYYCARDGSHMDKPPGYVFAFWGQGTLVTVSS VL: DIQMTQSPSSLSASVGDRVTITCRASQGIKNYLNWYQQKPGKAPKLLIGAASSLQSGVPSRFSGSGSGTDFTLTISSLQPEDFATYYCLQYYGMPPTFGQGTKVEIKR', 8.49);
